List of soluble fraction (log2) values.
Assay: soluble fraction after stress (log2 fold change); higher = more stays soluble; pooled small domains, quantitative proteomics
Details: stress: pH 4
Lab note: write the figure by itself, no unit.

soluble fraction (log2) recorded for this sequence, HMEPEVEITYFKPDERKAGGAYVTVTGAVIKVDDFERLITMQDGTKIPMDDILSIDGELFLS , is -1.08

soluble fraction (log2) recorded for this sequence, HMSYKDIKEASDTGTYRDEENNIDVKWQKLFNGHNEYFDIEAYRDGERVEINNQQADRYIYLIKQEMD , is -0.357

soluble fraction (log2) recorded for this sequence, HMGGYVVVGDKDGFWSVVSTPVSKAKAEELLKDTTFPKGEKGKIVSVAEAMSHKKVIGKEYLESGGT , is 0.0926

Now let's try a different one.
soluble fraction (log2) recorded for this sequence, HMPAKIIKKSFVYNPIHRDTEYLAQFLQGEGQVSASGDKLVYYGTVEDISRIKSVLQSVDTPS , is -0.434

* * *

List of soluble fraction (log2) values.
Assay: soluble fraction after stress (log2 fold change); higher = more stays soluble; pooled small domains, quantitative proteomics
Conditions: stress: pH 4
Lab note: write the figure by itself, no unit.

Recorded results for 5 sequences are shown here.
soluble fraction (log2) recorded for this sequence, HMETEAGIKAYLSSSMIKGIGPVTAQRIVERFGKRTLYVLDQMPEKLLDISGISEAKLEEILNGYRKS , is -0.532

soluble fraction (log2) recorded for this sequence, HMGMTRPLFVTDPGLVRIGLVSPIFEKLGSGKLSPQLFDQVKEDPPEQTVFDGVEFARETGIDGVIGFG , is 0.0343

soluble fraction (log2) recorded for this sequence, HMPASVEYIRLAAEQMTGQQVTIIEQPGNYAFILRIHLNDIYSLDLAALRARIDELKPAHLTYTVEQYD , is -1.85

soluble fraction (log2) recorded for this sequence, HMETWDQAYETIKQNILNLTYPPGMPLTEAKLAEELGMSRSPVRTALRMLQTDGLIVTDYYKSMTVKEI , is -2.07

soluble fraction (log2) recorded for this sequence, HMTSLYDILGIAKTADSQTIKTAFKKKALLYHPDKNNGNLKKEEIFKKISTAYQILSDPKSRANYDLSIA , is 0.22

More entries:
soluble fraction (log2) recorded for this sequence, HMDSVSAVRTTHLNSYVLLLEKDGMAAATISRYIASMKGFFEYLFREHMIEEDPAFTLKPPKV , is 0.0461

soluble fraction (log2) recorded for this sequence, HMARTGSEELVGALATVREPLAPWGQVFVQGALWRARSADGGPVDAGQQVVVRAVEGLTLVVEPRD , is -0.166

soluble fraction (log2) recorded for this sequence, HMSINTIIAKNLNRLRNERNLSLGQLAELSGVSKVMLSQIEKGDSNPTVNTIWKIASGLNVPYTAILDQP , is 0.22

* * *

Test: soluble fraction after stress (log2 fold change); higher = more stays soluble; pooled small domains, quantitative proteomics
Conditions: stress: pH 4
MEASURED ATTRIBUTE: soluble fraction (log2)
Lab note: write the figure by itself, no unit.

Recorded results for 3 sequences are shown here.
soluble fraction (log2) recorded for this sequence, HMWNLPDPVVRPEGNVTVYENFKNTVEVLNREADLVLKFLQNEFGTSANIDDTGRARLTGSFSTDRVSSVI , is -0.529

soluble fraction (log2) recorded for this sequence, HMKNQIGFKIKNARRKASISQADLSAKLGISSSYLNLIESGKRNVNVDLLLKVSDVLNIELKDLSK , is -0.437

soluble fraction (log2) recorded for this sequence, HMESILDDFPGLGEKRKKALLEHFGSISKIKAATVGQLREVDGIGFETAAALREFLDANFPA , is 0.0668

Now let's try a different one.
soluble fraction (log2) recorded for this sequence, HMRAERVQITDPYIELHTGPGRGFPIFFVAPREQWISIELRHTDWFKVRAVGGQVGWVQRKQLEST , is -0.295

* * *

Assay: soluble fraction after stress (log2 fold change); higher = more stays soluble; pooled small domains, quantitative proteomics
Conditions: stress: pH 4
MEASURED ATTRIBUTE: soluble fraction (log2)

Recorded results for 3 sequences are shown here.
soluble fraction (log2) recorded for this sequence, HMSGYFSDKKLNELFEQYLIMREKKGKPVVGYQLKILIDRLNQVAANTKEKIEVVSNAIAGDWNTFYPIKR , is 0.0685

soluble fraction (log2) recorded for this sequence, HMNDVHELPYSSFIEMVERGHVISVTVKHINIEFESTKNENYRTIAPQAMTPPYLELLLKNKDSVKVTFLP , is -0.516

soluble fraction (log2) recorded for this sequence, HMDNPNVMAQVKSLLASKGLSEQEVKERLKAKGLNIDAMSDAEIAQNRSVIEQTIAELEAEKKKAG , is 0.287

More entries:
soluble fraction (log2) recorded for this sequence, HMKQKAEVIFVSKTIMEALSKGVRLTPENLKSETELPIDDFYARLKELIDNGSVVESRENGESYLEAGN , is -0.938

soluble fraction (log2) recorded for this sequence, HMGASALTEREREVLRLLEGGGSDKRIARQLAISEHGVRYHLKSIYKKLGVHDRVSAIAAGRRLAS , is ≥ 0.43

soluble fraction (log2) recorded for this sequence, HMGMGIGQIIKEKRTALKMTQNELAERLGVSQQSVTGWENNAAVPRESAVRGMMDIFGLSRNELFGEP , is 0.0969

soluble fraction (log2) recorded for this sequence, HMATTAGIEKYLGSGLIKGIGPIYAKKIVRKFKEDTIRIIDEEPDRLLEVEGIGQKRLEIIKQAWQQQKE , is -0.826

soluble fraction (log2) recorded for this sequence, HMPVISGQDLRVLIRDTGRERDQGISFLDDGTMVVVEDARRLIGQEVTATVTRVHQTQTGRIVFAHLSN , is -0.698

* * *

Experiment: soluble fraction after stress (log2 fold change); higher = more stays soluble; pooled small domains, quantitative proteomics
Settings: stress: pH 4
Would you please tag the item Criterion met when its soluble fraction (log2) is -1 or above, and Criterion not met when it is below?

Check if soluble fraction (log2) >= -1 (inclusive). Item: HMLMRSPDFLIGWFQNLVAKRETFNDQVQAKNLIEAGKQHIQGEDFDRLLEVNRRLFSLLPQREQE Criterion not met

Check if soluble fraction (log2) >= -1 (inclusive). Item: HMKTILEKDQRLAKYISYLIKRKRLSPEQVIEHLKTDDHGYEKYPKSINTIYAAIDKGLIPSVTRQDM Criterion met

Check if soluble fraction (log2) >= -1 (inclusive). Item: HMTISGSDLKAQREALNIPLERIAKETRIRLSILQDLEDEEYSELSSSAQTKGFLRLYADYLSSHKQRLG Criterion met

Check if soluble fraction (log2) >= -1 (inclusive). Item: HMKIDLKQIEGVLDELAKVKGSLITILQKTQETYGYLPKEAIIYISERTGIAESEIMGVATFYTQFRL Criterion met

Check if soluble fraction (log2) >= -1 (inclusive). Item: HMKTRNISGNHEAVWQAVRSRTQAGHPTTRAVIMDDLKAQGLNTQKFSRWLKKLVDDGSVYMDGDTIIMGK Criterion met

More entries:
Check if soluble fraction (log2) >= -1 (inclusive). Item: HMIDTPQELARLLRLLDEQNFEAEILFHKLRPDLLHLWSKEHVTRIAEALDAFDYQMALTLLNASP Criterion not met

Check if soluble fraction (log2) >= -1 (inclusive). Item: HMKTTKRERARAKLIQLLENEDRPAKEIYAGLGDIGVGSRTVEKVKKELQVTTYRSGGSWYWSLPKP Criterion met

Check if soluble fraction (log2) >= -1 (inclusive). Item: HMITKAIELAEEAEKETVWLGVWEHNHPAQKFYQSLGFVKTDEHDFYMGNERHTDYTMTKQLK Criterion met

* * *

Experiment: soluble fraction after stress (log2 fold change); higher = more stays soluble; pooled small domains, quantitative proteomics
Conditions: stress: pH 4
MEASURED ATTRIBUTE: soluble fraction (log2)
Lab note: write the figure by itself, no unit.

Recorded results for 3 sequences are shown here.
soluble fraction (log2) recorded for this sequence, HMRTKEGLASQLEKIPGIGPVKRKALLKKFGSIDAIAAASKEELMLTDGITSSLADAIRDYF , is 0.391

soluble fraction (log2) recorded for this sequence, HMSGKWKIRILWYIAEYEVQRFGELRRRLGDITQSTLTEQLRELEQDGFVSRYVYQEVPSKVEYSLTE , is -0.0562

soluble fraction (log2) recorded for this sequence, HMSVDDYLKFSGSGTYWNTQDRGKTYLVNGQQRPLRDKEYLPDVMHRHVIDFITKHRDRPFYIYYSM , is -0.0438

More entries:
soluble fraction (log2) recorded for this sequence, HMYHIYPVADNDTPKLSADRLEYSLSNALLTNKLLNIDEIKKIYNDVILDKDEDGTLELSFKS , is 0.167

soluble fraction (log2) recorded for this sequence, HMQIAEAESLGQRLLQQSINNIVGRDEAITEERLNRVLSQYSLTGRDELMAQIGLGNRNSSLVAKAMYDI , is -0.35

soluble fraction (log2) recorded for this sequence, HMIAVSQEQIKQIIVDDPSFHDANGKFSQALLTQYLNQRRMSEDQFVEEIRDQFLFQNLQNLVQNG , is -0.623

soluble fraction (log2) recorded for this sequence, HMTKTKADKIDYAIGDSGTEPPTEDKWTDLAHLPLIKAGQFQWTRRTEYYSDGSTAVSYNIAKSE , is 0.156

soluble fraction (log2) recorded for this sequence, HMENVVESIYNKMVESITNGQWAAGSKIPTENELAKTYQVSRSSVRQAISRLKALGLLESRQGSGTVIKK , is 0.178
